# measured_on: histamine-3 receptors (H3 receptor) (Rattus norvegicus)
# Construct: from tissue; host or cells: male Sprague-Dawley rat brain cortex membranes
# test_details: (3H)-N-α-methylhistamine binding to rat cortical membranes
# experimental_context: male Sprague-Dawley rat brain cortical membranes; (3H)-N-α-methylhistamine ~0.6 nM; 30 minutes at 25° C.; Cheng-Prusoff equation; read-out: Ki
test_readout: pKi
Scale: pKi equals -log10([C]), with [C] in mol/L.

IN: Entry CC(C)N(C)CCc1cc2cc(-c3ccc(C(=O)N4CCOCC4)cc3)ccc2o1 [Example 36] has what pKi?
OUT: 7.28

IN: Entry CC(C)CN(C)CCc1cc2cc(-c3ccc(C(=O)N4CCOCC4)cn3)ccc2o1 [Example 55] has what pKi?
OUT: 6.24

IN: Entry O=C(c1ccc(-c2ccc3oc(CCN4CC=CCC4)cc3c2)cc1)N1CCOCC1 [Example 33] has what pKi?
OUT: 7.49

IN: Entry CCN(CC)CCc1cc2cc(-c3ccc(C(=O)N4CCOCC4)cn3)ccc2o1 [Example 47] has what pKi?
OUT: 7.22

IN: Entry CCN(CC)CCc1cc2cc(-c3ccc(C(=O)N4CCOCC4)cc3)ccc2o1 [Example 25] has what pKi?
OUT: 7.84

IN: Entry CN(CCc1cc2cc(-c3ccc(C(=O)N4CCOCC4)cc3)ccc2o1)C(C)(C)C [Example 35] has what pKi?
OUT: 7.17

IN: Entry C[C@@H]1CC[C@@H](C)N1CCc1cc2cc(-c3ccc(C#N)cc3)ccc2o1 [Example 12] has what pKi?
OUT: 7.42

IN: Entry O=C(c1ccc(-c2ccc3oc(CCN4CCOCC4)cc3c2)cc1)N1CCOCC1 [Example 32] has what pKi?
OUT: 6.58

IN: Entry O=C(c1ccc(-c2ccc3oc(CCN4CCCCC4)cc3c2)nc1)N1CCOCC1 [Example 46] has what pKi?
OUT: 7.73

IN: Entry CCN(CCc1cc2cc(-c3ccc(C(=O)N4CCOCC4)cn3)ccc2o1)C(C)C [Example 57] has what pKi?
OUT: 6.94

---

# measured_on: histamine-3 receptors (H3 receptor) (Rattus norvegicus, UniProt Q9QYN8)
# Construct: from tissue; host or cells: male Sprague-Dawley rat brain cortex membranes
# Sequence (Q9QYN8 whole entry): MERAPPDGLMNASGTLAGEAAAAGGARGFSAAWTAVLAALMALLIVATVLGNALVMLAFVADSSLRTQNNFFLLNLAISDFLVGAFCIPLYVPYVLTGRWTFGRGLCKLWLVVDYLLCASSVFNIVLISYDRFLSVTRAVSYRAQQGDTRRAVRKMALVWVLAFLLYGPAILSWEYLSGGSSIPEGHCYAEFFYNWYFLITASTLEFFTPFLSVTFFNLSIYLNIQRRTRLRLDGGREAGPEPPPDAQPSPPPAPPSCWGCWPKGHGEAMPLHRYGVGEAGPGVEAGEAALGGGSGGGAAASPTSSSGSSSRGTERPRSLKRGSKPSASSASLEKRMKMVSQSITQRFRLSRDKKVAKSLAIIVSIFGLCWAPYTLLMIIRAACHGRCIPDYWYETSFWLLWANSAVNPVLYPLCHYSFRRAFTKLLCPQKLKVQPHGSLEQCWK
# test_details: (3H)-N-α-methylhistamine binding to rat cortical membranes
# experimental_context: male Sprague-Dawley rat brain cortical membranes; (3H)-N-α-methylhistamine ~0.6 nM; 30 minutes at 25° C.; Cheng-Prusoff equation; read-out: Ki
# Method: Briefly, male Sprague-Dawley rat brain cortices were homogenized (1 g tissue/10 mL buffer) in 50 mM Tris-HCl/5 mM EDTA containing protease inhibitor cocktail (Calbiochem) using a polytron set at 20,500 rpm. Homogenates were centrifuged for 20 minutes at 40,000×g. […] Radioactivity was determined using liquid scintillation counting techniques. Results were analyzed by Hill transformation and Ki values were determined using the Cheng-Prusoff equation.
Would you kindly list Ki for each of these compounds?
Could you give me the number in µM? Just the number is fine.

IN: Entry `O=C(c1ccc(-c2ccc3oc(CCNCCCO)cc3c2)nc1)N1CCOCC1` has what Ki?
OUT: 1

IN: Entry `C[C@@H]1CC[C@@H](C)N1CCc1cc2cc(-c3ccc(C(=O)N4CCOCC4)cn3)ccc2o1` has what Ki?
OUT: 0.0144

IN: Entry `O=C(c1ccc(-c2ccc3oc(CCN4CCOCC4)cc3c2)nc1)N1CCOCC1` has what Ki?
OUT: 0.242

IN: Entry `C[C@@H]1CCCN1CCc1cc2cc(C(=O)c3ccccc3)ccc2o1` has what Ki?
OUT: 0.0028

IN: Entry CC1CCCN1CCc1cc2cc(-c3ccc(C(=O)N4CCOCC4)cc3)ccc2o1 (stereo not drawn) has what Ki?
OUT: 0.00197

IN: Entry `CN(C)CCc1cc2cc(-c3ccc(C(=O)N4CCOCC4)cn3)ccc2o1` has what Ki?
OUT: 0.133

IN: Entry `CCCN(CC)CCc1cc2cc(-c3ccc(C#N)cc3)ccc2o1` has what Ki?
OUT: 0.0692

IN: Entry `CCCNCCc1cc2cc(-c3ccc(C(=O)N4CCOCC4)cn3)ccc2o1` has what Ki?
OUT: 0.596

IN: Entry `CCN(CC)CCc1c(C)c2cc(-c3ccc(C#N)cc3)ccc2oc1=O` has what Ki?
OUT: 0.0146

IN: Entry `Cc1c(CCN2CCCCC2)c(=O)oc2ccc(-c3ccc(C#N)cc3)cc12` has what Ki?
OUT: 0.0418

IN: Entry `CC1CCN(CCc2cc3cc(-c4ccc(C(=O)N5CCOCC5)cn4)ccc3o2)CC1` has what Ki?
OUT: 0.162

IN: Entry `COc1ccccc1C(=O)c1ccc2oc(CCN3CCC[C@H]3C)cc2c1` has what Ki?
OUT: 0.0016

IN: Entry O=C(c1ccc(-c2ccc3oc(CCN4CC5CC4CO5)cc3c2)nc1)N1CCOCC1 (stereo not drawn) has what Ki?
OUT: 0.143

IN: Entry `CN(CCc1cc2cc(-c3ccc(C(=O)N4CCOCC4)cn3)ccc2o1)C(C)(C)C` has what Ki?
OUT: 0.197

IN: Entry `N#Cc1ccc(-c2ccc3oc(CCN4CC=CCC4)cc3c2)cc1` has what Ki?
OUT: 0.0922

IN: Entry `COc1ccc(C(=O)c2ccc3oc(CCN4CCC[C@H]4C)cc3c2)cc1` has what Ki?
OUT: 0.0029

IN: Entry `Cc1c(CCN2CCCC2)c(=O)oc2ccc(-c3ccc(C#N)cc3)cc12` has what Ki?
OUT: 0.0515

IN: Entry `CSc1ccc(C(=O)c2ccc3oc(CCN4CCC[C@H]4C)cc3c2)cc1` has what Ki?
OUT: 0.0082

IN: Entry `CC1CCN(CCc2cc3cc(-c4ccc(C#N)cc4)ccc3o2)CC1` has what Ki?
OUT: 0.0251

IN: Entry `O=C(c1ccc(-c2ccc3oc(CCN4CCCCCC4)cc3c2)nc1)N1CCOCC1` has what Ki?
OUT: 0.00307

IN: Entry `O=C(c1ccc(-c2ccc3oc(CCN4CC[C@@H](O)C4)cc3c2)cc1)N1CCOCC1` has what Ki?
OUT: 0.0554
